- System: Aβtotal produced and secreted into the medium of human neuroblastoma SKNBE2 cells
- test-name: Cellular αlisa assay in SKNBE2 cells, Aβtotal
- Format: cell-based
- experimental-conditions: SKNBE2 cells expressing hAPP695, 18 hours incubation
Cellular αlisa assay in SKNBE2 cells Aβtotal pIC50 listing for selected molecules.
attribute-measured: Cellular αlisa assay in SKNBE2 cells Aβtotal pIC50

>  <molecule>
CC1(c2cc(-c3cncc(Cl)c3)ccc2F)N=C(N)Cn2nc(C(F)(F)F)cc21 (single isomer, unassigned) [Compound 26]

>  <test-target>
Aβtotal produced and secreted into the medium of human neuroblastoma SKNBE2 cells

>  <qualifier-operator>
<

>  <recorded-result>
5

$$$$
>  <molecule>
COc1cnc(C(=O)Nc2ccc(F)c(C3(C)N=C(N)Cn4nc(C(F)(F)F)cc43)c2)cn1 (single isomer, unassigned) [Compound 32]

>  <test-target>
Aβtotal produced and secreted into the medium of human neuroblastoma SKNBE2 cells

>  <qualifier-operator>
=

>  <recorded-result>
6.54

$$$$
>  <molecule>
CC1(c2cccc(-c3cncnc3)c2)N=C(N)Cn2nccc21 (stereo not drawn) [Compound 8]

>  <test-target>
Aβtotal produced and secreted into the medium of human neuroblastoma SKNBE2 cells

>  <qualifier-operator>
=

>  <recorded-result>
6.54

$$$$
>  <molecule>
CC1(c2cccc(-c3cc(Cl)cc(Cl)c3)c2)N=C(N)Cn2nccc21 (stereo not drawn) [Compound 20]

>  <test-target>
Aβtotal produced and secreted into the medium of human neuroblastoma SKNBE2 cells

>  <qualifier-operator>
=

>  <recorded-result>
6.37

$$$$
>  <molecule>
CC1(c2cccc(-c3cc(F)cc(F)c3)c2)N=C(N)Cn2nccc21 (stereo not drawn) [Compound 14]

>  <test-target>
Aβtotal produced and secreted into the medium of human neuroblastoma SKNBE2 cells

>  <qualifier-operator>
=

>  <recorded-result>
6.11

$$$$
>  <molecule>
CC1(c2cc(-c3ccccc3)c(F)cc2F)N=C(N)Cn2nccc21 (racemic) [Compound 12]

>  <test-target>
Aβtotal produced and secreted into the medium of human neuroblastoma SKNBE2 cells

>  <qualifier-operator>
=

>  <recorded-result>
5.67

$$$$

====

IC50 listing for selected compounds.
- test-target: recombinant BACE1 protein (Homo sapiens)
- Construct: recombinant BACE1 protein in a final concentration of 1 μg/ml
- Sequence (P56817 46-501): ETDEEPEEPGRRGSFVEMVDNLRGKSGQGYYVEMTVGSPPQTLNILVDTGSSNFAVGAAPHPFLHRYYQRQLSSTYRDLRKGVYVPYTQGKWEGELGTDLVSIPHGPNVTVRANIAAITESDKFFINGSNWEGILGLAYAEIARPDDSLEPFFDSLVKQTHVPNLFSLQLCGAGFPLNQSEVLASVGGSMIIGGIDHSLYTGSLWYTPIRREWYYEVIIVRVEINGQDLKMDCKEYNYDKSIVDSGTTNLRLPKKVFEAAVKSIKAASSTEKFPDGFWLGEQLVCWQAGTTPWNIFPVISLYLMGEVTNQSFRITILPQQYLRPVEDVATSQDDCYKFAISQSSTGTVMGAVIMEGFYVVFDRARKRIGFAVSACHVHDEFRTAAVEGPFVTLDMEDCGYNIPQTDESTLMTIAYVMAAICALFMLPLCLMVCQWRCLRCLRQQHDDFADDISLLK
- test-name: Biochemical FRET based assay
- experimental-conditions: recombinant BACE1 1 μg/ml, 120 min, room temperature, pH 5.0; read-out: Biochemical FRET based assay pIC50 (converted)
attribute-measured: IC50 (µM)

>  <compound>
CC1(c2cc(-c3cncc(Cl)c3)ccc2F)N=C(N)Cn2nc(C(F)(F)F)cc21 (single isomer, unassigned) [Compound 26]

>  <attribute-measured>
IC50

>  <qualifier-operator>
>

>  <recorded-result>
30.2

$$$$
>  <compound>
CC1(c2cc(NC(=O)c3ccc(Cl)cn3)ccc2F)N=C(N)Cn2nccc21 (single isomer, unassigned) [Compound 10]

>  <attribute-measured>
IC50

>  <qualifier-operator>
>

>  <recorded-result>
30.2

$$$$
>  <compound>
CC1(c2cc(NC(=O)c3ccc(Cl)cn3)ccc2F)N=C(N)Cn2nccc21 (single isomer, unassigned) [Compound 11]

>  <attribute-measured>
IC50

>  <qualifier-operator>
=

>  <recorded-result>
0.0427

$$$$
>  <compound>
COc1cncc(-c2cccc(C3(C)N=C(N)Cn4nccc43)c2)c1 (racemic)

>  <attribute-measured>
IC50

>  <qualifier-operator>
=

>  <recorded-result>
1.66

$$$$
>  <compound>
COc1cncc(-c2cccc(C3(C)N=C(N)Cn4nc(C(F)(F)F)cc43)c2)c1 (stereo not shown) [Compound 21]

>  <attribute-measured>
IC50

>  <qualifier-operator>
=

>  <recorded-result>
1.07

$$$$
>  <compound>
CC1(c2cc(-c3cncnc3)c(F)cc2F)N=C(N)Cn2nccc21 (racemic)

>  <attribute-measured>
IC50

>  <qualifier-operator>
=

>  <recorded-result>
8.71

$$$$
>  <compound>
COc1cncc(-c2cccc(C3(C)N=C(N)Cn4nc(C(F)(F)F)cc43)c2)c1 (single isomer, unassigned) [Compound 23]

>  <attribute-measured>
IC50

>  <qualifier-operator>
>

>  <recorded-result>
30.2

$$$$
>  <compound>
CC1(c2cc(NC(=O)c3ncc(Cl)cc3Cl)ccc2F)N=C(N)Cn2nc(C(F)(F)F)cc21 (single isomer, unassigned) [Compound 28]

>  <attribute-measured>
IC50

>  <qualifier-operator>
=

>  <recorded-result>
0.0912

$$$$
>  <compound>
COc1cncc(-c2cccc(C3(C)N=C(N)Cn4nc(C(F)(F)F)cc43)c2)c1 (single isomer, unassigned) [Compound 22]

>  <attribute-measured>
IC50

>  <qualifier-operator>
=

>  <recorded-result>
0.603

$$$$
>  <compound>
CC1(c2cc(-c3cncc(Cl)c3)ccc2F)N=C(N)Cn2nc(C(F)(F)F)cc21 (stereo not shown) [Compound 24]

>  <attribute-measured>
IC50

>  <qualifier-operator>
=

>  <recorded-result>
7.24

$$$$

From: patent US8609660B2
